measurementTarget: T1, 4H2931-bA
T1 chain: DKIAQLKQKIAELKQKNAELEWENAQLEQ
test: two-hybrid library CCNG1;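 further: natural log of median RNA to DNA barcode read ratio; higher means stronger binding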
Would you mind labelling by interaction score? At or over -0.09 is true, under is false.

DKIAQLKQKIAELEQKIAELKWENAQLEQ [4H2859-bA] = false
DKIAQLEQKNAELKQENAELEWKIAQLKQ [4H2518-bA] = false
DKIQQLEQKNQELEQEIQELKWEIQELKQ [4H2442-bN] = true

INPUT: Dear colleague, could you confirm whether DKIAQLKQKIAELKQKNAELEWENAQLEQ [4H2931-bA] has interaction score at or above -0.09?
OUTPUT: false

INPUT: Please check the record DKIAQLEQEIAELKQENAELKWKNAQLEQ [4H2143-bA] and state if its interaction score is at or above -0.09.
OUTPUT: true

INPUT: Could you verify whether the entry DKIAQLKQEIAELEQENAELKWEIAQLEQ [4H2585-bA] shows interaction score of no less than -0.09?
OUTPUT: false
